Reported switch fluorescence ratio by item:
- Tested on: ATP;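 further: ATP exposure 15 min at 22 °C before imaging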
- protocol-text: switch fluorescence ratio, 500 uM ATP over buffer (Cy3 cluster intensity, sum of 5 cycles each) (fold (ratio)); higher = stronger signal-on switching upon ATP binding; sequences stand for … in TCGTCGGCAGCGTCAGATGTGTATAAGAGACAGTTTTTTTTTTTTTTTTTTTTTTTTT…TC
- assay-conditions: aptamer strand: ATP DNA aptamer (quencher-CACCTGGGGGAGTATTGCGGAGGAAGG + anchor), 100 nM annealed; ATP concentration: 500 uM

AATAAGATTT : 1.02
TACTGGATGA : 0.991
AAGTTGAGTG : 0.947

Q) Identify measured switch fluorescence ratio obtained with ATP for CTAGGTTGCA .
A) 0.987

Q) Identify measured switch fluorescence ratio obtained with ATP for GCAATTCAGA .
A) 1.06

Q) Identify measured switch fluorescence ratio obtained with ATP for GGGTCTGTAA .
A) 1.42

Q) Identify measured switch fluorescence ratio obtained with ATP for GATGCGATGT .
A) 1.18

----------
Reported switch fluorescence ratio by item:
- System: ATP;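 further: ATP exposure 15 min at 22 °C before imaging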
- protocol-text: switch fluorescence ratio, 500 uM ATP over buffer (Cy3 cluster intensity, sum of 5 cycles each) (fold (ratio)); higher = stronger signal-on switching upon ATP binding; sequences stand for … in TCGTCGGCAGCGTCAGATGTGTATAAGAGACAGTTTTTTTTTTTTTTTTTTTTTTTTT…TC
- assay-conditions: aptamer strand: ATP DNA aptamer (quencher-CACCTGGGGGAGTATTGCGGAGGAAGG + anchor), 100 nM annealed; ATP concentration: 500 uM
Lab note: jot down the number only; don't add units.

Examples from the recorded data:
TACGGTCAGC : 1.03
AAACGGTGTG : 1.03
CGGAGAGGCA : 0.974

Q) Please indicate switch fluorescence ratio recorded for GCGGAAGGGT
A) 1

Q) Please indicate switch fluorescence ratio recorded for TCAATGGGGG
A) 0.985

Q) Please indicate switch fluorescence ratio recorded for ATTTATTTTT
A) 1.01

----------
- Tested on: ATP;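 further: ATP exposure 15 min at 22 °C before imaging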
- protocol-text: switch fluorescence ratio, 500 uM ATP over buffer (Cy3 cluster intensity, sum of 5 cycles each) (fold (ratio)); higher = stronger signal-on switching upon ATP binding; sequences stand for … in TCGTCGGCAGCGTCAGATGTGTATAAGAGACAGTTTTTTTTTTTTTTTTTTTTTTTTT…TC
- assay-conditions: aptamer strand: ATP DNA aptamer (quencher-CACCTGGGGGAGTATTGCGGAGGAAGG + anchor), 100 nM annealed; ATP concentration: 500 uM
Assign true (1) to entries whose switch fluorescence ratio meets or exceeds 1; assign false (0) to the rest.

Examples from the recorded data:
GCAATTTTAG : true (1)
AGGAGCGCGG : true (1)
GACGTGACAA : true (1)

Q) Kindly determine if switch fluorescence ratio recorded for GCAGCTGGTG is above or exactly 1.
A) true (1)

Q) Kindly determine if switch fluorescence ratio recorded for TTAATGTTGG is above or exactly 1.
A) false (0)

Q) Kindly determine if switch fluorescence ratio recorded for CTCTTTTGGG is above or exactly 1.
A) false (0)

Q) Kindly determine if switch fluorescence ratio recorded for ACGAGCTGCT is above or exactly 1.
A) true (1)

Q) Kindly determine if switch fluorescence ratio recorded for AGAGACAGGG is above or exactly 1.
A) true (1)

Q) Kindly determine if switch fluorescence ratio recorded for ACAGGACTTA is above or exactly 1.
A) true (1)

Q) Kindly determine if switch fluorescence ratio recorded for GCGGGAGGAT is above or exactly 1.
A) true (1)

Q) Kindly determine if switch fluorescence ratio recorded for CCAGGTAAGT is above or exactly 1.
A) true (1)

----------
- Tested on: ATP;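 further: ATP exposure 15 min at 22 °C before imaging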
- protocol-text: switch fluorescence ratio, 500 uM ATP over buffer (Cy3 cluster intensity, sum of 5 cycles each) (fold (ratio)); higher = stronger signal-on switching upon ATP binding; sequences stand for … in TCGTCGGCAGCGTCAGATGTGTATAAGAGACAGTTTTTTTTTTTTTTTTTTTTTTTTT…TC
- assay-conditions: aptamer strand: ATP DNA aptamer (quencher-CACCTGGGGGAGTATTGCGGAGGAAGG + anchor), 100 nM annealed; ATP concentration: 500 uM
Reported switch fluorescence ratio by item:
Lab note: jot down the number only; don't add units.

Q) Identify measured switch fluorescence ratio obtained with ATP for TCCAGGGGCG .
A) 1.73

Q) Identify measured switch fluorescence ratio obtained with ATP for TCTTGTGG .
A) 0.982

----------
- Test system: ATP;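 further: ATP exposure 15 min at 22 °C before imaging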
- protocol-text: switch fluorescence ratio, 500 uM ATP over buffer (Cy3 cluster intensity, sum of 5 cycles each) (fold (ratio)); higher = stronger signal-on switching upon ATP binding; sequences stand for … in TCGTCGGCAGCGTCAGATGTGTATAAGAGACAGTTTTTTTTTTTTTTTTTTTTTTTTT…TC
- assay-conditions: aptamer strand: ATP DNA aptamer (quencher-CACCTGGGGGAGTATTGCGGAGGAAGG + anchor), 100 nM annealed; ATP concentration: 500 uM
Reported switch fluorescence ratio by item:
Lab note: jot down the number only; don't add units.

Examples from the recorded data:
TTGTTTTTTG : 1.01
GCGGTCCCCG : 1.11
ATCGTAAAAG : 0.993
GGGGTTTTTA : 0.995
CCATAGCTCA : 2.02

Consider now this further sequence.
Q) Please indicate switch fluorescence ratio recorded for CATCAGTTGA
A) 1.02

----------
- System: ATP;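 further: ATP exposure 15 min at 22 °C before imaging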
- protocol-text: switch fluorescence ratio, 500 uM ATP over buffer (Cy3 cluster intensity, sum of 5 cycles each) (fold (ratio)); higher = stronger signal-on switching upon ATP binding; sequences stand for … in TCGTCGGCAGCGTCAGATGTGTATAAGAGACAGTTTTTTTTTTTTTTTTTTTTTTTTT…TC
- assay-conditions: aptamer strand: ATP DNA aptamer (quencher-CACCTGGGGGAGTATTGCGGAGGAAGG + anchor), 100 nM annealed; ATP concentration: 500 uM
Assign true (1) to entries whose switch fluorescence ratio meets or exceeds 1; assign false (0) to the rest.

TTTAGGGTGT : true (1)
GTAAGGGGCA : true (1)
AATAGGCACA : true (1)
AACCGGATCG : true (1)
TACTACTTGC : true (1)
CAAAATTAAA : false (0)
TGCTTATGGT : false (0)
CACCTTAATT : true (1)
AGTCGGGAGG : false (0)
CCGATAGGGG : true (1)

Note: attention shifts to another entry.
Q) Kindly determine if switch fluorescence ratio recorded for GGGCTGTTTG is above or exactly 1.
A) false (0)

----------
- System: ATP;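 further: ATP exposure 15 min at 22 °C before imaging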
- protocol-text: switch fluorescence ratio, 500 uM ATP over buffer (Cy3 cluster intensity, sum of 5 cycles each) (fold (ratio)); higher = stronger signal-on switching upon ATP binding; sequences stand for … in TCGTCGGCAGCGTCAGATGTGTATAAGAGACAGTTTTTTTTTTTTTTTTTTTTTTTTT…TC
- assay-conditions: aptamer strand: ATP DNA aptamer (quencher-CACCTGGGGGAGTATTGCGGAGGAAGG + anchor), 100 nM annealed; ATP concentration: 500 uM
reported-endpoint: switch fluorescence ratio
Lab note: jot down the number only; don't add units.

Examples from the recorded data:
TTACTGTTAC : 1.32
TGCTGGCGGC : 0.982
GCGTATCTTA : 0.968
CGGAGCAGGA : 1.48
GATATCTGGA : 1.02

Q) Please indicate switch fluorescence ratio recorded for GTATGAAATG
A) 0.999

Q) Please indicate switch fluorescence ratio recorded for CTCGGCTTGA
A) 1.06

Q) Please indicate switch fluorescence ratio recorded for GGTGTAGGAC
A) 1.03

Q) Please indicate switch fluorescence ratio recorded for TCAGCATGCG
A) 0.933

Q) Please indicate switch fluorescence ratio recorded for GCGTTTGGGT
A) 0.995

Q) Please indicate switch fluorescence ratio recorded for TGGTTTATAC
A) 1.32

Q) Please indicate switch fluorescence ratio recorded for GGTGGAGGGA
A) 0.987

Q) Please indicate switch fluorescence ratio recorded for GTTCGAAGAC
A) 1.02

Q) Please indicate switch fluorescence ratio recorded for GGGGTGAGTT
A) 0.931

Q) Please indicate switch fluorescence ratio recorded for TCACGCTGTG
A) 1.01

Q) Please indicate switch fluorescence ratio recorded for TTAATGAAGG
A) 1

Q) Please indicate switch fluorescence ratio recorded for GGCACCTACG
A) 1.53

Q) Please indicate switch fluorescence ratio recorded for TTAAATCGGC
A) 0.991

Q) Please indicate switch fluorescence ratio recorded for AATGCATCTA
A) 0.989

Q) Please indicate switch fluorescence ratio recorded for GGTTTGAAAA
A) 1.01

----------
Reported switch fluorescence ratio by item:
- Test system: ATP;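 further: ATP exposure 15 min at 22 °C before imaging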
- protocol-text: switch fluorescence ratio, 500 uM ATP over buffer (Cy3 cluster intensity, sum of 5 cycles each) (fold (ratio)); higher = stronger signal-on switching upon ATP binding; sequences stand for … in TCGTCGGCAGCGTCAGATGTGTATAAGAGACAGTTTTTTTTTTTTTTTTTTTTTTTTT…TC
- assay-conditions: aptamer strand: ATP DNA aptamer (quencher-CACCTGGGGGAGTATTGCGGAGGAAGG + anchor), 100 nM annealed; ATP concentration: 500 uM
Lab note: jot down the number only; don't add units.

Examples from the recorded data:
AAAAAAGAGA : 0.977
GTGGGTTACT : 1.02
TGATGTCGGG : 0.999
GGGAAAATGT : 1.02
TAGGCTATAT : 1.01
GGGGAGAGAT : 0.999

Q) Identify measured switch fluorescence ratio obtained with ATP for GCTGGGTTTG .
A) 0.987

Q) Identify measured switch fluorescence ratio obtained with ATP for CACGGACTGC .
A) 1.42

Q) Identify measured switch fluorescence ratio obtained with ATP for GTCGGAAGGG .
A) 1.01

Q) Identify measured switch fluorescence ratio obtained with ATP for CGTGTCAGCA .
A) 0.994

These entries and their values trace back to the supplement of paper PMC10126150.
